- system: binding partner of C5A (XPA23)
- protocol-text: Biacore

{"binder": "C5A (XPA23) VH F35S (antibody, V domains shown) VH: EVQLLESGGGLVQPGGSLRLSCAASGFTFSKYFMSWVRQAPGKGLEWVSVISPSGGMTRYADSVKGRFTISRDNSKNTLYLQMNSLRAEDTAVYYCARVGYGGNSDYWGQGTLVTVSS VL: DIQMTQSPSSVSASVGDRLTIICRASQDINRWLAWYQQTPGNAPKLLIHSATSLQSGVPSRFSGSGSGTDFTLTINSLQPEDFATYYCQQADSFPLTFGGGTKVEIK", "fold affinity vs original, fold": 0.09}
{"binder": "C5A (XPA23) VH F33N (antibody, V domains shown) VH: EVQLLESGGGLVQPGGSLRLSCAASGFTFSKYNMFWVRQAPGKGLEWVSVISPSGGMTRYADSVKGRFTISRDNSKNTLYLQMNSLRAEDTAVYYCARVGYGGNSDYWGQGTLVTVSS VL: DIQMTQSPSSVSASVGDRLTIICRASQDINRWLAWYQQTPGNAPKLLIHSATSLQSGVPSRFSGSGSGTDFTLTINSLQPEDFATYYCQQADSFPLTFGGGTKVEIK", "fold affinity vs original, fold": 0.97}
{"binder": "C5A (XPA23) VH F33W (antibody, V domains shown) VH: EVQLLESGGGLVQPGGSLRLSCAASGFTFSKYWMFWVRQAPGKGLEWVSVISPSGGMTRYADSVKGRFTISRDNSKNTLYLQMNSLRAEDTAVYYCARVGYGGNSDYWGQGTLVTVSS VL: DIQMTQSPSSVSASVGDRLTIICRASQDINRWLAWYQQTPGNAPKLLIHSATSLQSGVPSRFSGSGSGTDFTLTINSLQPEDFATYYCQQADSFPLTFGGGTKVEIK", "fold affinity vs original, fold": 0.79}
{"binder": "C5A (XPA23) VH G55E (antibody, V domains shown) VH: EVQLLESGGGLVQPGGSLRLSCAASGFTFSKYFMFWVRQAPGKGLEWVSVISPSEGMTRYADSVKGRFTISRDNSKNTLYLQMNSLRAEDTAVYYCARVGYGGNSDYWGQGTLVTVSS VL: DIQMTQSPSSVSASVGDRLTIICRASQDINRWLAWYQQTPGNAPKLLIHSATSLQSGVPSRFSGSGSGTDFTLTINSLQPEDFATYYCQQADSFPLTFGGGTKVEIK", "fold affinity vs original, fold": 0.11}
{"binder": "C5A (XPA23) VH N104S (antibody, V domains shown) VH: EVQLLESGGGLVQPGGSLRLSCAASGFTFSKYFMFWVRQAPGKGLEWVSVISPSGGMTRYADSVKGRFTISRDNSKNTLYLQMNSLRAEDTAVYYCARVGYGGSSDYWGQGTLVTVSS VL: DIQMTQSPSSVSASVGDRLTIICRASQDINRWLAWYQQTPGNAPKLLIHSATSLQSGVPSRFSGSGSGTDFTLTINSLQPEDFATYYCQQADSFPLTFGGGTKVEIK", "fold affinity vs original, fold": 1.02}
